Molecular target: Fuc(a1-2)Gal(b1-3)GalNAc
Assay: glycan array binding signal (z-score within array); higher = stronger binding
Conditions: glycan notation: IUPAC condensed, linker removed
This excerpt belongs to a sample that is enriched for the strongest signals.
quantityKind: glycan array binding signal (z-score)
One number for each entry.

Query: Query glycan array binding signal (z-score) for rCnSL-proA (Clitocybe nebularis) (protein) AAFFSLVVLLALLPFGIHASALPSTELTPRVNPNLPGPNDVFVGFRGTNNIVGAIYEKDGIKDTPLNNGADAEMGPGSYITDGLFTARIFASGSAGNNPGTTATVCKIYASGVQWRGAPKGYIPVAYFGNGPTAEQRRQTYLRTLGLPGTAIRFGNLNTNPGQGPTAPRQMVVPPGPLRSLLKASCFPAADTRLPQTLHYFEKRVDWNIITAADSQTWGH
Result: -0.318

Respectfully, I request glycan array binding signal (z-score) for each entry included below.
1. Glycodelin A (Homo sapiens), P09466 (protein) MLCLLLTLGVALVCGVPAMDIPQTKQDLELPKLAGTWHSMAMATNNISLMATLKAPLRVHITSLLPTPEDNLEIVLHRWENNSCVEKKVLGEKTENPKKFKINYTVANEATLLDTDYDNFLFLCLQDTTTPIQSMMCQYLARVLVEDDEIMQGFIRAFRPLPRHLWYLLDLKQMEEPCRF
2. Gal 1 (Canis lupus) (protein) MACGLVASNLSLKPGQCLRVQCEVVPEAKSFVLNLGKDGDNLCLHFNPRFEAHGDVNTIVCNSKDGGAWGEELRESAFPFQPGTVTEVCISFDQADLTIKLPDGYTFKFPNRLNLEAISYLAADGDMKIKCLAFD
3. MGL6A (Homo sapiens) (protein) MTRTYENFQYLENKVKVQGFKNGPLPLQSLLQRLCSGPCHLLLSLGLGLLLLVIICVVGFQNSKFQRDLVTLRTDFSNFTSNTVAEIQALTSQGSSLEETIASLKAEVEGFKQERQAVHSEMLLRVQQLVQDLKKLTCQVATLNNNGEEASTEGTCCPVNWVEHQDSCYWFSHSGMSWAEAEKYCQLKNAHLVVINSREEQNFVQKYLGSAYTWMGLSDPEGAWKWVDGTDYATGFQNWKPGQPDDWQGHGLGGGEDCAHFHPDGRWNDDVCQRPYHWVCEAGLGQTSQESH
4. Intelectin 1 (Homo sapiens), Q8WWA0 (protein) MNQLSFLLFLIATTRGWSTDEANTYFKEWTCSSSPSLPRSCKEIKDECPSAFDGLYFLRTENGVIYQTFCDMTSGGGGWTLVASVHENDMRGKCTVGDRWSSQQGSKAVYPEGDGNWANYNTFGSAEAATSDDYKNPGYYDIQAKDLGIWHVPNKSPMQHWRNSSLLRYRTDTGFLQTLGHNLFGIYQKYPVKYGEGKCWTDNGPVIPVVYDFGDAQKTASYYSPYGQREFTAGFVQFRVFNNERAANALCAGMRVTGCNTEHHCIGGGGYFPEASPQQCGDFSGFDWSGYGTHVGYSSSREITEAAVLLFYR

Result:
-0.421
-0.289
-0.261
-0.327
